Recorded values, source paper PMC9482650.

- experimentalSystem: MAGI1_3, Q96QZ7
- Sequence (Q96QZ7 638-725): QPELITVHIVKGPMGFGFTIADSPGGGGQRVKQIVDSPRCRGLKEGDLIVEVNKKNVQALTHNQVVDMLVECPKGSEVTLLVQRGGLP
- assayInfo: holdup assay
- Design: key: below the threshold = too weak to quantify, mostly under pKd 3.1 to 4
- protocolConditions: plain residues with an end cap or a label only (N-terminal biotin on a linker: ttds)
quantityKind: pKd

binder="SRPQRTQTQV [HPV67-E6, A4U7F2]" reportedvalue=4.12
binder="SVWLRKETRV [CYSLTR2, Q9NS75]" reportedvalue=5.09
binder="SSRTRRETQL [HPV16-E6, P03126]" reportedvalue=4.16
